methodNotes: Half life of the compound in water at 250 uM measured up to 48 hrs by reverse phase HPLC analysis
Assay type: physicochemical
measurementLabel: half-life at 250 µM (h)
Express the result in h but write the number alone.

Query: Recorded half-life at 250 µM for COc1ccc(CCN2CN=C(SCc3ccc(Cl)cc3)NC2)cc1OC , please?
Reply: 13

* * *

Test system: Pseudomonas aeruginosa
methodNotes: Antibacterial activity against Pseudomonas aeruginosa PAO1 assessed as growth inhibition after 16 hrs
Format: functional
settings: PAO1, 16 h
measurementLabel: MIC (µg/mL)
Express the result in µg/mL but write the number alone.

As a guide, the following entries are already answered.
N=C(N)c1ccc(Cl)cc1	64
N=C(N)SCc1ccc(Cl)c(Cl)c1	16
N=C(N)Sc1ccc(Cl)cc1	64
N=C(N)SCc1ccc([N+](=O)[O-])cc1	64

# input for lookup
Query: Quick check: MIC on Pseudomonas aeruginosa, item N=C(N)SCc1ccc(F)cc1 ?
Reply: 16
